test system: Candida haemulonii var. vulnera; experiment: Biofilm-growing cells, XTT assay, bMIC; type: cell-based; settings: isolate LIP Ch5; mature biofilm, 48 h, 50% inhibition of metabolic activity
Overview of recorded bMIC for various molecules
PROPERTY NAME: bMIC (mg/L)

* O.O.O.O.O.O.O.O.O.O.O.O.O.O.O.O.O=C([O-])c1cccc(C(=O)[O-])c1.O=C([O-])c1cccc(C(=O)[O-])c1.[Mn+2].[Mn+2].c1cnc2c(c1)ccc1cccnc12.c1cnc2c(c1)ccc1cccnc12.c1cnc2c(c1)ccc1cccnc12.c1cnc2c(c1)ccc1cccnc12.c1cnc2c(c1)ccc1cccnc12 [compound 11, {[Mn(phen)2(H2O)2]}2(isoph)2(phen).12H2O] | 16
* O.O.O.O.O.O=C([O-])c1ccc(C(=O)[O-])cc1.[Mn+2].c1cnc2c(c1)ccc1cccnc12.c1cnc2c(c1)ccc1cccnc12 [compound 12, [Mn(tereph)(phen)2].5H2O] | 2
* O.O.O=C([O-])c1ccccc1C(=O)[O-].[Mn+2].c1cnc2c(c1)ccc1cccnc12 [compound 8, [Mn(ph)(phen)(H2O)2]] | 32
* CCO.O=C([O-])COCCOCCOCC(=O)[O-].[Ag+].[Ag+].c1cnc2c(c1)ccc1cccnc12.c1cnc2c(c1)ccc1cccnc12.c1cnc2c(c1)ccc1cccnc12.c1cnc2c(c1)ccc1cccnc12 [compound 16, [Ag2(3,6,9-tdda)(phen)4].EtOH] | 4
* CCO.O.O.O.O.O.O.O=C([O-])c1cccc(C(=O)[O-])c1.[Cu+2].c1cnc2c(c1)ccc1cccnc12.c1cnc2c(c1)ccc1cccnc12 [compound 3, [Cu(isoph)(phen)2].6H2O.EtOH] | 16
* CCO.O=C([O-])CCCCCCC(=O)[O-].[Cu+2].[Cu+2].[O-][Cl+3]([O-])([O-])[O-].[O-][Cl+3]([O-])([O-])[O-].c1cnc2c(c1)ccc1cccnc12.c1cnc2c(c1)ccc1cccnc12.c1cnc2c(c1)ccc1cccnc12.c1cnc2c(c1)ccc1cccnc12 [compound 5, [Cu2(oda)(phen)4](ClO4)2.2.76H2O.EtOH] | 32

###

Examples of compounds with documented MIC follow.
system: Candida haemulonii var. vulnera; test: Planktonic growth, broth microdilution (CLSI M27-A3), MIC; assay type: cell-based; details: isolate LIP Ch11; planktonic, 48 h, 37°C
PROPERTY NAME: MIC

* [Cl][Cu][Cl] [CuCl2, reference compound] | >32 µg/mL
* [Cl][Mn][Cl] [MnCl2, reference compound] | >32 µg/mL
* O.O.O=C([O-])c1ccccc1C(=O)[O-].[Cu+2].c1cnc2c(c1)ccc1cccnc12 [compound 1, [Cu(ph)(phen)(H2O)2]] | >32 µg/mL
